Target: T1, EGFRvIII on F98npEGFRvIII cells (rat glioma F98 transfected with nonphosphorylated EGFRvIII)
T1 construct: whole, on cells; also called F98-EGFRvIII
Test: flow cytometry, antibodies added at 2 µg/ml, F98-npEGFRvIII cells
Readout Kind: Median : PE-A

Here is how some binders turned out for Median : PE-A.
[[record]]
binder = "monoclonal antibody 4A4 (antibody, V domains shown) VH: QVQLKQSGRSLVQPSQSLSITCTVSGFSLTDYGVHWIRQSPGKGLEWLGVIWRSGRTDYNAVFMSRLSITKDNSKSQVFFKMNGLLIEDTAIYYCAKNGPFGNFAGYWGQGTPVAVSA VL: DIVMSQSPSSLAVSVGEKVTMRCRSSQSLLDSYHQKNYLAWYLQKPGQSPKLLIYWASTRESGVPDRFTGSGSGTDFTLTISSVKAEDLAAYYCQEYYRYPYTFGGGTKLEIK"
endpoint_result = 1110

[[record]]
binder = "monoclonal antibody 3D10 (antibody, V domains shown) VH: QVQLKQSGPGLVQPSQSLSIICTVSGFSLTRNGVHWVRQSPGKGLEWVGVIWRSGRTDYDAAFMSRLSITKDNSKSQVFFKMNSLQADDTAIYYCVKNGDDGNYGTYWGQGTLVTVSA VL: DIVMSQSPSSLGVSVGEKVTMSCKSSQSLLDSRNQKNYLAWYQQKPGQSPKLLIYWASTRESGVPDRFTGSGSGTEFTLTISSVKAEDLAIYYCQQYYNYPYTFGGGTKLEIT"
endpoint_result = 1420

[[record]]
binder = "monoclonal antibody 9G11 (antibody, V domains shown) VH: QVQLKQSGPGLVQPSQSLSITCTVSGFSLTRNGVHWVRQSPGKGLEWVGVIWRGGRTDYDAAFMSRLSITKDNSKSQVFFKMNSLQADDTAIYYCVKNGDDGNYGTYWGQGTLVTVSA VL: DIVMSQSPSSLGVSVGEKVTMSCKSSQSLLDSRNQKNYLAWYQQKPGQSPKLLIYWASTRESGVPDRFTGSGSGTEFTLTISSVKAEDLAIYYCQQYYNYPYTFGGGTKLEIT"
endpoint_result = 1010


// sample monoclonal antibody 1D9 (antibody, V domains shown) VH: QVQLKQSGRSLVQPSQSLSITCTVSGFSLTDYGVHWIRQSPGKGLEWLGVIWRSGRTDYNAVFMSRLSITKDNSKSQVFFKMNGLQTDDTAIYYCAKNGPFGNFAGYWGQGTPVAVSA VL: DIVMSQSPSSLAVSVGEKVTMRCRSSQSLLDSYHQKNYLAWYLQKPGQSPKLLIYWASTRESGVPDRFTGSGSGTDFTLTISSVKAEDLAVYYCQEYYRYPYTFGGGTKLEIK , its Median : PE-A was 1230
